Item-by-item account of TGI
system: RXF 393 renal; test: NCI tumour cell line growth inhibition, 48 h

- compound: "Cc1ccc(S(=O)(=O)N=Nc2c(O)[nH]c3cc(O)c(C(=O)O)cc23)cc1"
  value_qualifier: ">"
  TGI / µM: 100
- compound: "O=C(NC1=C(Cl)C(=O)c2ccccc2C1=O)c1ccccc1"
  value_qualifier: "="
  TGI / µM: 34
- compound: "C=C1c2c(C)nn(-c3ccc(C#CCOC4OC(CO)C(O)C(O)C4O)cc3)c2N(C)C23C[C@H]1C1(C)c4c(C)nn(-c5ccc(C#CCOC6OC(CO)C(O)C(O)C6O)cc5)c4N(C)C(C)(C[C@H]12)C3 (stereo not given in full)"
  value_qualifier: "="
  TGI / µM: 3.52
- compound: "CNc1ncccc1Nc1cc(=O)n2c3cccnc3n(C)c2c1"
  value_qualifier: "="
  TGI / µM: 80.8
- compound: "N/N=C\\c1c2ccccc2c(=O)n2c1oc1ccccc12"
  value_qualifier: "="
  TGI / µM: 52.5

###

system: HT29 colon; assay: NCI tumour cell line growth inhibition, 48 h
readout_type: TGI

- molecule: "Cc1ccc(S(=O)(=O)OC2CC=CC2)cc1"
  readout_type: "TGI"
  experimental_value: "> 100 µM"
- molecule: "N#CSCC(Cl)=CCl (mixture of isomers)"
  readout_type: "TGI"
  experimental_value: "> 100 µM"
- molecule: "COc1cc(Nc2ncccc2C(=O)Nc2nc3ccc(F)cc3s2)cc(OC)c1OC"
  readout_type: "TGI"
  experimental_value: "> 100 µM"
- molecule: "O=C(O)CSCCc1ccccc1"
  readout_type: "TGI"
  experimental_value: "> 100 µM"
- molecule: "O=c1[nH]c2ccccc2cc1-c1nc2ccc(Cl)cc2[nH]1"
  readout_type: "TGI"
  experimental_value: "> 100 µM"
- molecule: "CCN1CCCc2cc3c(C(F)(F)F)cc(=O)oc3cc21"
  readout_type: "TGI"
  experimental_value: "> 100 µM"
- molecule: "O=C1NC(=S)S/C1=C/c1ccc2c(c1)OCO2"
  readout_type: "TGI"
  experimental_value: "> 100 µM"
- molecule: "CC1(C)N=C(N)N=C(N)N1c1ccc(CCC(=O)Nc2ccc(S(=O)(=O)F)cc2)c(Cl)c1"
  readout_type: "TGI"
  experimental_value: "> 100 µM"
- molecule: "COc1ccc(CC2COc3cc(OC)cc(OC)c3C2=O)cc1 (stereo unspecified)"
  readout_type: "TGI"
  experimental_value: "40.4 µM"
- molecule: "CN(C)CCNC(=O)c1cccc2c(=O)c3ccccc3oc12"
  readout_type: "TGI"
  experimental_value: "98.7 µM"
- molecule: "CCOC(=O)[CH-]C(=O)C12CC3CC(CC(C3)C1)C2.CCOC(=O)[CH-]C(=O)C12CC3CC(CC(C3)C1)C2.CC[O-].CC[O-].[Ti+4]"
  readout_type: "TGI"
  experimental_value: "> 100 µM"

###

system: TK-10 renal; assay: NCI tumour cell line growth inhibition, 48 h

- compound: "O=C1C=CC(=O)C2C1C1(Cl)C(Cl)=C(Cl)C2(Cl)C1(Cl)Cl (configuration not stated)"
  TGI: "81 µM"
- compound: "CC1(O)C(C)(O)C2(C)O[Te]3(OC12C)OC1(C)C(C)(O)C(C)(O)C1(C)O3 (configuration not stated)"
  TGI: "> 100 µM"
- compound: "O=C(Nc1ccc(Cl)cc1)C1C(=O)C(=O)N(c2ccc(Cl)cc2)C1=O (configuration not stated)"
  TGI: "> 100 µM"
- compound: "CC(=O)C1C(c2ccccc2)C2(C)OC(=O)C(C#N)C12C (configuration not stated)"
  TGI: "> 100 µM"
- compound: "Oc1ccc2ccccc2c1N=Nc1cccc2ccccc12"
  TGI: "> 100 µM"
- compound: "NC(N)=NS(=O)(=O)c1ccc(NNc2c3ccccc3nc3ccccc23)cc1"
  TGI: "42.7 µM"
- compound: "CC1(C)N=C(N)N=C(N)N1c1ccc(CCC(=O)Nc2ccc(S(=O)(=O)F)cc2)c(Cl)c1"
  TGI: "> 100 µM"

###

tested on: HOP-62 NSCLC; experiment: NCI tumour cell line growth inhibition, 48 h
readout_type: TGI (µM)

- molecule: "COC(=O)[C@@H]1C[C@H]2OC(=O)CC[C@]2(C)O[C@H]1[C@H]1O[C@@](C)(O)CCC[C@H]1C"
  value_qualifier: ">"
  experimental_value: 50
- molecule: "C=C(C)[C@@H]1CC[C@]2(COCCCN)CC[C@]3(C)[C@H](CC[C@@H]4[C@@](C)(CCCNCCCN)[C@H](C(=C)C)CC[C@]43C)[C@@H]12"
  value_qualifier: "="
  experimental_value: 3.25
- molecule: "C[C@]12CCc3sc(Nc4ccc(OC(F)(F)F)cc4)nc3C1=CC[C@@H]1[C@@H]2CC[C@]2(C)C(=O)CC[C@@H]12"
  value_qualifier: "="
  experimental_value: 4.19
- molecule: "CN(C)CCOc1ccc([N+](=O)[O-])c2cccnc12"
  value_qualifier: ">"
  experimental_value: 100
- molecule: "CC1=C2C(O)C(C(C)C(=O)N(C)C)CCC2(C)C=CC1=O (stereo not given)"
  value_qualifier: ">"
  experimental_value: 100

###

system: ACHN renal; assay: NCI tumour cell line growth inhibition, 48 h

- compound: "C=C(CCOC)CCC1CCCCC(CN(C)C)C1=O (stereo unspecified)"
  TGI: "> 100 µM"
- compound: "Cc1cc(C)c2c(=O)cc(-c3cccc4ccccc34)[nH]c2n1"
  TGI: "> 100 µM"
- compound: "C[C@@H](C(=O)O)N1C(c2ccco2)=C(/C(C=O)=C\\c2ccco2)C(=O)/C1=C\\c1ccco1"
  TGI: "> 100 µM"
- compound: "N/N=C\\c1c2ccccc2c(=O)n2c1oc1ccccc12"
  TGI: "29.9 µM"
- compound: "C[C@]12CCc3sc(Nc4ccc(OC(F)(F)F)cc4)nc3C1=CC[C@@H]1[C@@H]2CC[C@]2(C)C(=O)CC[C@@H]12"
  TGI: "10.8 µM"
- compound: "O=C(O)CCCc1ccc2ccc3ccccc3c2c1"
  TGI: "> 100 µM"
- compound: "N#CSCC(Cl)=CCl (mixture of isomers)"
  TGI: "> 100 µM"
- compound: "O=C(NC1=C(Cl)C(=O)c2ccccc2C1=O)c1ccccc1"
  TGI: "40 µM"
- compound: "COc1cc(C=O)c(-c2c(C=O)ccc3c2OCO3)c(OC)c1OC"
  TGI: "> 100 µM"
- compound: "CC1C2CC(C(S(=O)(=O)O)C2=O)C1(C)C (stereo unspecified)"
  TGI: "> 100 µM"
- compound: "COC(=O)c1csc([C@@H](OC(=O)[C@H](C)[C@H](CCCC(C)(Cl)Cl)OC(=O)c2csc([C@H](O)CO)n2)C(C)C)n1"
  TGI: "25.8 µM"

###

test system: CAKI-1 renal; test: NCI tumour cell line growth inhibition, 48 h

- compound: "O=C1C2=Cc3ccccc3OC2(O)Oc2cc3ccccc3cc21 (stereo unspecified)"
  TGI: "> 100 µM"
- compound: "C=CC[C@]1(/C=N/O)CN(S(=O)(=O)CC[Si](C)(C)C)C[C@H]2CC=CC[C@H]21"
  TGI: "42.8 µM"
- compound: "COc1ccc2nc(N/N=C/c3sccc3C)cc(C)c2c1"
  TGI: "> 100 µM"
- compound: "CNC1(c2cc3ccccc3s2)CCCCC1"
  TGI: "> 100 µM"
- compound: "O=[N+]([O-])c1ccc(CSc2nncc3[nH]cnc23)cc1"
  TGI: "> 100 µM"
- compound: "O=C(Nc1ccc(C(F)(F)F)cc1[N+](=O)[O-])C(=O)C1NC(=S)NC1=O (stereo unspecified)"
  TGI: "> 100 µM"
- compound: "CS(=O)(=O)CCNCc1coc(-c2ccc3ncnc(Nc4ccc(OCc5ccccc5)cc4)c3c2)c1"
  TGI: "13.4 µM"
- compound: "O=C(Nc1cccc(O)c1)C(=O)C1C(=O)NC(=S)NC1=O"
  TGI: "> 100 µM"
- compound: "CCCCC1(NN=C2CCCCC2)C(=O)N(c2ccccc2)N(c2ccccc2)C1=O"
  TGI: "> 100 µM"
- compound: "COC(=O)c1ccc2[nH]c(O)c(C(=Nc3ccc(N(C)C(=O)CN4CCN(C)CC4)cc3)c3ccc4c(c3)OCO4)c2c1"
  TGI: "4.07 µM"
- compound: "S=C(N/N=C/c1ccccn1)N1CCCCC1"
  TGI: "> 100 µM"
- compound: "N#CCC(=O)N/N=C1/C(=O)N(c2ccc(Cl)cc2)C(=O)C(=O)C1c1nc2ccccc2s1 (stereo unspecified)"
  TGI: "> 100 µM"
- compound: "CC(=O)C(C(c1ccccc1)N1CCOCC1)N1CCOCC1 (stereo unspecified)"
  TGI: "> 100 µM"
- compound: "COc1ccc([C@@]2(O)c3c(ccc(O)c3OC)[C@H]2OC)c(OC)c1"
  TGI: "> 100 µM"
- compound: "COCCOC(=O)C1=C(O)c2ccccc2S(=O)(=O)N1C"
  TGI: "> 100 µM"
- compound: "COc1ccc2c(c1)NC1=C(C(=O)OC1)C2c1cc(OC)c(OC)c(OC)c1 (stereo unspecified)"
  TGI: "> 100 µM"
- compound: "CCN(CC)CCNC(Cc1ccccc1)c1ccc(OCc2ccccc2)cc1 (stereo unspecified)"
  TGI: "16.7 µM"
- compound: "CC(=O)OC1OC([C@H]2c3cccc(O)c3C(=O)c3c(O)cc(C)cc32)C(O)C(O)C1O (stereo partly specified)"
  TGI: "0.544 µM"
- compound: "C[C@]12CCc3sc(Nc4ccc(OC(F)(F)F)cc4)nc3C1=CC[C@@H]1[C@@H]2CC[C@]2(C)C(=O)CC[C@@H]12"
  TGI: "13.2 µM"
- compound: "O=C(O)CCCc1ccc2ccc3ccccc3c2c1"
  TGI: "> 100 µM"
- compound: "COc1cc(C=O)c(-c2c(C=O)ccc3c2OCO3)c(OC)c1OC"
  TGI: "> 100 µM"

The reported numbers originate from PubChem BioAssay (NCI).
